- assayed system: RORγ (Mus musculus, UniProt P51450)
- Construct: mRORγ (Pro-261-end); expressed in transfected cells
- Sequence (P51450 261-516 limits assumed): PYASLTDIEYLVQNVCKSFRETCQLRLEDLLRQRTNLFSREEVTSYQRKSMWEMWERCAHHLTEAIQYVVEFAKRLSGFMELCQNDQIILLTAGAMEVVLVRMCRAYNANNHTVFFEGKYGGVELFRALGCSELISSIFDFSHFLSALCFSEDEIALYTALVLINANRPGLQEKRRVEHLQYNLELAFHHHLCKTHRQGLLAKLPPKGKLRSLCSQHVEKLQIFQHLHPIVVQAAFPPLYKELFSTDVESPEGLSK
- experiment: Gal4-RORγ-LBD UAS-luciferase reporter assay in TRex-CHO-K1 cells (doxycycline-stimulated)
- Format: cell-based
- condition context: individual controls 1295.201-307, 5 μg/ml, triplicate
assay readout: % Inhibition RORγ 5 μg/ml (%)
Quick reminder: number only, in %, skip the unit.

Worked set:
CCC(CN1C(NC(=O)Cc2ccccc2)=NCC1Cc1ccccc1)c1ccccc1 (mixture of isomers); 35.8
O=C(Cc1ccc(F)cc1)NC1=NC[C@H](Cc2ccccc2)N1CCc1ccccc1; 29.8
CCCC[C@H]1CN=C(NC(=O)Cc2ccccc2)N1CCc1ccccc1; 13.0
O=C(Cc1ccc(-c2ccccc2)cc1)NC1=NC[C@H](Cc2ccccc2)N1CCc1ccccc1; 11.1
Cc1cccc(C(=O)NC2=NC[C@H](Cc3ccccc3)N2CCc2ccccc2)c1; 59.9

Moving on to the next compound.
Give % Inhibition RORγ 5 μg/ml (RORγ (Mus musculus, UniProt P51450)) of the following compound: `C[C@@H]1CN=C(NC(=O)Cc2ccccc2)N1CCc1ccccc1`
-9.3

* * *

Listing of recorded inhibition at 5 µg/mL by entry.
- assayed system: RORγ (Mus musculus, UniProt P51450)
- Construct: mRORγ (Pro-261-end); expressed in transfected cells
- Sequence (P51450 261-516 limits assumed): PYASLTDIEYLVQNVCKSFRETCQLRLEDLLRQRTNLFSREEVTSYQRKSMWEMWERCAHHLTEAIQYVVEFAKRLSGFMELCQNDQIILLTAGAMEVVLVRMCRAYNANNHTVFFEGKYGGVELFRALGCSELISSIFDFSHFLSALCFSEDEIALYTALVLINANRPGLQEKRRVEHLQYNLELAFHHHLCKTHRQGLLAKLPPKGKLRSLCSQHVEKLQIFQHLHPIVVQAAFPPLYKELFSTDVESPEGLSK
- experiment: Gal4-RORγ-LBD UAS-luciferase reporter assay in TRex-CHO-K1 cells (doxycycline-stimulated)
- Assay type: cell-based
- condition context: T-REx-CHO-K1, read-out: % Inhibition RORγ 5 μg/ml

Examples with their reported inhibition at 5 µg/mL follow.
CC(CC(=O)NC1=NC[C@H](Cc2ccccc2)N1CCc1ccccc1)c1ccccc1 (some centres unmarked) [1295.274]; 105%
O=C(CC1CCCCC1)NC1=NC[C@H](Cc2ccccc2)N1CCc1ccccc1 [1295.299]; 89.6%
O=C(Cc1ccccc1)NC1=NC[C@H](Cc2ccccc2)N1CCCC1CCCCC1 [1295.268]; 103%
O=C(Cc1ccccc1)NC1=NC[C@H](Cc2ccccc2)N1CCC1CC2CCC1C2 (some centres unmarked) [1295.270]; 84.6%
CC1CCC(CN2C(NC(=O)Cc3ccccc3)=NC[C@@H]2Cc2ccccc2)CC1 (some centres unmarked) [1295.269]; 104%

Would you mind telling me what inhibition at 5 µg/mL value was observed for CC1CCC(C(=O)NC2=NC[C@H](Cc3ccccc3)N2CCc2ccccc2)CC1 (some centres unmarked) [1295.306] ?
97.8%

Also, O=C(CC1CC2CCC1C2)NC1=NC[C@H](Cc2ccccc2)N1CCc1ccccc1 (some centres unmarked) [1295.307] please.
101%

Similarly, O=C(Cc1ccccc1)NC1=NC[C@H](Cc2ccccc2)N1CCC1CCCCC1 [1295.261] ?
95.9%

* * *

Catalogue of molecules with associated IC50
- assayed system: RORγ (Mus musculus)
- Construct: mRORγ (Pro-261-end); expressed in transfected cells
- experiment: Gal4-RORγ-LBD UAS-luciferase reporter assay in TRex-CHO-K1 cells (doxycycline-stimulated)
- Assay type: cell-based
- condition context: individual controls of library 1295, second confirmatory dose response, Figure 2
State just the number; it will be interpreted in µM.

O=C(CCCC1CCCCC1)NC1=NC[C@H](Cc2ccccc2)N1CCc1ccccc1; 8.7

GET /values?readout=IC50&item= `O=C(CCC1CCCCC1)NC1=NC[C@H](Cc2ccccc2)N1CCc1ccccc1`
6.6

Param item: `O=C(NC1=NC[C@H](Cc2ccccc2)N1CCc1ccccc1)C1(c2ccccc2)CC1`
8

What about `O=C(Cc1ccccc1)NC1=NC[C@H](Cc2ccccc2)N1CCCC1CCCCC1` ?
6.2

How about this molecule: `CC(C)(C)C(=O)NC1=NC[C@H](Cc2ccccc2)N1CCc1ccccc1`
10

Next molecule: `O=C(Cc1ccccc1)NC1=NC[C@H](Cc2ccccc2)N1CCc1ccc(-c2ccccc2)cc1`
5

Now consider `O=C(CCc1ccccc1)NC1=NC[C@H](Cc2ccccc2)N1CCc1ccccc1` .
7

* * *

Form field: IC50 (one value per entry).
- assayed system: RORβ (Rattus norvegicus, UniProt P45446)
- Construct: rRORβ (Pro 205-end); expressed in transfected cells
- Sequence (P45446 216-470): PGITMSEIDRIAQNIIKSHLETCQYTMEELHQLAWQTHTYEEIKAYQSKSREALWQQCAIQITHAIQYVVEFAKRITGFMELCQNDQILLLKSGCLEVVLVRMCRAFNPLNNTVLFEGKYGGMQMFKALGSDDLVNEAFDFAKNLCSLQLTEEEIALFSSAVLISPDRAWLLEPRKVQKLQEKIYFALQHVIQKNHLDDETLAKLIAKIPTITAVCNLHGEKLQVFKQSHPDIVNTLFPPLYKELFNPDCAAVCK
- experiment: Gal4-RORβ-LBD UAS-luciferase reporter assay in TRex-CHO-K1 cells (doxycycline-stimulated)
- Type: cell-based
- condition context: IC50 (μM) (N=4) RORβ, individual controls of library 1295, second confirmatory dose response, Figure 2
- Source text: To investigate the transcriptional activity of all three RORs, we generated stable cell lines expressing an UAS-driven luciferase reporter together with the corresponding Gal4-DNA binding domain fused to the ligand binding domains (LBDs) of mRORγ (Pro-261-end), hRORα (Pro-211-end), or rRORβ (Pro 205-end). […]
Number in µM, nothing else.

The examples below pair each entry with its known result.
O=C(Cc1ccccc1)NC1=NC[C@H](Cc2ccccc2)N1CCc1ccc(-c2ccccc2)cc1; 12.1
O=C(Cc1ccccc1)NC1=NC[C@H](Cc2ccccc2)N1CCC1CCCCC1; 17.1

Note: attention shifts to another entry.
Given the entry `O=C(CC1CCCCC1)NC1=NC[C@H](Cc2ccccc2)N1CCc1ccccc1` , report its measured IC50.
12.7

* * *

- assayed system: RORγ (Mus musculus, UniProt P51450)
- Construct: mRORγ (Pro-261-end); expressed in transfected cells
- experiment: Gal4-RORγ-LBD UAS-luciferase reporter assay in TRex-CHO-K1 cells (doxycycline-stimulated)
- Type: cell-based
- condition context: individual controls 1295.201-307, 5 μg/ml, triplicate
# % Inhibition RORγ 5 μg/ml >= 20% gives Yes, anything below gives No

For orientation, consider the following solved cases.
CCCCN1C(NC(=O)Cc2ccccc2)=NC[C@@H]1Cc1ccccc1; No
CCOc1ccc(CC(=O)NC2=NC[C@H](Cc3ccccc3)N2CCc2ccccc2)cc1; No
COc1cccc(CCN2C(NC(=O)Cc3ccccc3)=NC[C@@H]2Cc2ccccc2)c1; No
CC(C)[C@@H]1CN=C(NC(=O)Cc2ccccc2)N1CCc1ccccc1; Yes
O=C(Cc1ccccc1)NC1=NCCN1CCc1ccccc1; No

Say whether `COc1ccc(CCN2C(NC(=O)Cc3ccccc3)=NC[C@@H]2Cc2ccccc2)cc1` shows % Inhibition RORγ 5 μg/ml of 20% or more.
Yes

What would you report for `COc1ccc(CCC(=O)NC2=NC[C@H](Cc3ccccc3)N2CCc2ccccc2)cc1OC` ?
Yes

Also need `CC(C)(C)CN1C(NC(=O)Cc2ccccc2)=NC[C@@H]1Cc1ccccc1` , thanks.
No

Next record, please: `CC(=O)NC1=NC[C@H](Cc2ccccc2)N1CCc1ccccc1`
No

* * *

- assayed system: RORγ (Mus musculus, UniProt P51450)
- Construct: mRORγ (Pro-261-end); expressed in transfected cells
- experiment: Gal4-RORγ-LBD UAS-luciferase reporter assay in TRex-CHO-K1 cells (doxycycline-stimulated)
- Assay type: cell-based
- condition context: IC50 (μM, N=4) ROR-Gamma, library 2520
assay readout: IC50 (µM)
Please reply with the bare figure in µM and do not write the unit itself.

// solved cases for IC50 follow
CCOc1ccc(C[C@H]2CN=C(NC(=O)C(CC)c3ccccc3)N2CCC2CC3CCC2C3)cc1 (stereo partly drawn) [2520.47]; 4.68
CCOc1ccc(C[C@H]2CN=C(NC(=O)C(CC)c3ccccc3)N2CC2CCCCC2)cc1 (stereo partly drawn) [2520.39]; 4.36

Can you share its IC50? I mean this compound: CCC(C(=O)NC1=NC[C@H](Cc2ccccc2)N1CCC(C)c1ccccc1)c1ccccc1 (stereo partly drawn) [2520.31]
3.95
